B1: tRNA (parent)
chain: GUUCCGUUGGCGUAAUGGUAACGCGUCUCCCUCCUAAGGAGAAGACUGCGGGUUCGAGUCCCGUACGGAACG

variants of: B1; experiment: yeast fitness, log relative to wild type (ln ratio); higher = fitter; tRNA-Arg(CCU), competitive growth, 37 C, 1 M NaCl
measure: yeast fitness (ln)
Lab note: record the figure alone, no unit after it.

The cases that follow already have their yeast fitness (ln) on record.
G1A U2C G6U A43C A70G C71U; -0.198
G1A U2G G6U C27U C66A A70G C71U; -0.287

Reported yeast fitness (ln) ( U2C G6U C27U C66A A69G A70U C71U ) = -0.525

Briefly, yeast fitness (ln) measured for G1A A43C C66U A69G A70G C71U : -0.293

yeast fitness (ln) reported for this variant G6A C27U C46U A69G C71U : -0.252

// sample G1A C27U C66U A69G C71U , its yeast fitness (ln) was -0.285

U2C G6A C27U A43C C46U C66U C71U has a reported yeast fitness (ln) of -0.122

The variant G1A G6A C46U A69G C71U showed yeast fitness (ln) equal to -0.252

Query G6A C66U A70G yields yeast fitness (ln) of -0.00631

Reported yeast fitness (ln) of U2G G6U A43C C46U C66A A69G C71U : -0.462

The value of yeast fitness (ln) measured for the variant C27U C66U A70U C71U turned out to be -0.276

yeast fitness (ln) in this record for U2G C27U A70U : -0.0184
